# Test system: MC1/MC4;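 also: ratio of EC50 values obtained at MC1 versus MC4 receptors, with MC1 potency measured by luciferase reporter activity in stably transfected cells expressing human MC1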
# EXPERIMENTAL CONTEXT: ratio MC1/MC4
OUTCOME MEASURE: MC1/MC4 selectivity
Answer with the value's number alone.

The reported value for 4-guanidinobutyryl-cyclo[Cys-Glu-His-D-Phe-Arg-Trp-Cys]-NH2 [Compound 41] in terms of MC1/MC4 selectivity is 58.47

The reported value for Ac-Tyr-Arg-cyclo[Cys-Glu-His-(4-Cl-D-Phe)-Arg-Trp-Cys]-NH2 [Compound 86] in terms of MC1/MC4 selectivity is 66.21

The reported value for N-cyclopropanecarbonyl-cyclo[hCys-His-D-Phe-Arg-Trp-Cys]-NH2 [Compound 141] in terms of MC1/MC4 selectivity is 83.00

The reported value for Arg-cyclo[hCys-His-D-Phe-Arg-Trp-hCys]-NH2 [Compound 194] in terms of MC1/MC4 selectivity is 10.61
